Target: T1, his-tagged human TIGIT (Acro Biosystems #TIT-H52H3) (human, UniProt Q495A1 22-141)
T1 construct: Bought protein; also called His-tagged-TIGIT (human); not shown: his tag
T1 sequence (looked up): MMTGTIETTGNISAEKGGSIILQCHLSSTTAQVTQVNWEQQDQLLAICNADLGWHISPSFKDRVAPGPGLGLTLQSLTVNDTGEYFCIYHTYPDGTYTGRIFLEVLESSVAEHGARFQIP
Assay: SPR (Carterra LSA), scFv-Fc captured, His-TIGIT analyte
attribute-measured: Kd

Some solved cases for reference:
43586p1.2.C12 (scFv, V domains shown) VH: ESGGGLVQPGGSLRLSCAASGFTFSDYLMTWVRQAPGKGLEWVSTITWDGDRTYYADSVKGRFTISRDNSKNTLYLQMNSLRAEDTAVYYCAKHWTVFQYGMDVWGQGTTVTVSS VL: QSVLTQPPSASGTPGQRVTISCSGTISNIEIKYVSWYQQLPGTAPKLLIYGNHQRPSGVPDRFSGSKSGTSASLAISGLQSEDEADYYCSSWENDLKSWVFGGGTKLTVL :: 0.192 nM
43586p2.G02 (scFv, V domains shown) VH: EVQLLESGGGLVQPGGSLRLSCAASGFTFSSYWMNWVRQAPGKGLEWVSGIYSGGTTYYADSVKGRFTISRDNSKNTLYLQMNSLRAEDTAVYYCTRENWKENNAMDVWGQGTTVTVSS VL: QSVLTQPPSASGTPGQRVTISCSGVTSNIASYHVYWYQQLPGTAPKLLIYLNSQRPSGVPDRFSASKSGTSASLAISGLQSEDEADYYCATWDGSQNGWVFGGGTKLTVL :: 0.639 nM

Reported Kd, binder 43352p1.D11 (scFv, V domains shown) VH: DVQLVESGGGVVRPGESLRLSCAASGFTFSSHAMSWVRQAPGEGLEWVSLISGNGVSAYYADSVKGRFTISRDNSKNTLYLQMNSLSAEDTAIYYCARGTYLISFFDYWGLGTLVTVSS VL: QSVLTQPPSASGTPGQRVTISCSGISAKIGNNYVSWYQQLPGTAPKLLIYFNNQRPSGVPDRFSGSKSGTSASLAISGLQSEDEADYYCASWDDSLNAWLFGGGTKLTVL : ____
0.0685 nM

Data origin: patent US20230265187A1
